- Test system: NF54 strain of P. falciparum
- protocol.summary: Parasite growth inhibition, CQ-sensitive NF54 strain
- Format: cell-based, Plasmodium falciparum
- conditions: Plasmodium falciparum, NF54, read-out: parasite activity (maximum dose concentration)
recorded.metric: IC50

**Query** Recorded IC50 of O=C(Nc1ccccc1)c1cc(C(=O)Nc2nc3ccccc3[nH]2)cc([N+](=O)[O-])c1 [Compound 18] , please.
**Result** > 249 µM
